# target: T1, human serum albumin (human, UniProt P02768 25-609)
# T1 construct: mature; Bought protein; biotinylated in the Octet and HTRF assays; also called HSA; HuSA
# experimentNotes: SPR (Biacore), immobilised HSA, Affimer analyte
Please respond with reported kon for every item in the list.
State the answer as a number, implicitly in M⁻¹ s⁻¹.

kon lookup needed for AVA04-269 XT12 (designed binder) MIPRGLSEAKPATPEIQEIVDKVKPQLEEKTNETYGKLEAVQYKTQVLAKEYGPEEWWSTNYYIKVRAGDNKYMHLKVFNGPGDYEQVLIHADRVLTGYQVDKNKDDELTGFAEAAAKEAAAKEAAAKEAAAKEAAAKEAAAKMIPRGLSEAKPATPEIQEIVDKVKPQLEEKTNETYGKLEAVQYKTQVLANFFQRRWPGSTNYYIKVRAGDNKYMHLKVFNGPWKFRNTDRGADRVLTGYQVDKNKDDELTGFHHHHHH , thanks.
177000

Another binder to look at: AVA04-261 XT10 (designed binder) MIPRGLSEAKPATPEIQEIVDKVKPQLEEKTNETYGKLEAVQYKTQVLAHAYGPRDWDSTNYYIKVRAGDNKYMHLKVFNGPPADHVLEEAADRVLTGYQVDKNKDDELTGFAEAAAKEAAAKEAAAKEAAAKEAAAKEAAAKMIPRGLSEAKPATPEIQEIVDKVKPQLEEKTNETYGKLEAVQYKTQVLANFFQRRWPGSTNYYIKVRAGDNKYMHLKVFNGPWKFRNTDRGADRVLTGYQVDKNKDDELTGFHHHHHH
299000

Another binder to look at: AVA04-236 XT7 (designed binder) MIPRGLSEAKPATPEIQEIVDKVKPQLEEKTNETYGKLEAVQYKTQVLAKEHGPDSWWSTNYYIKVRAGDNKYMHLKVFNGPQEKNQWVEEADRVLTGYQVDKNKDDELTGFGGGGSGGGGSGGGGSGGGGSGGGGSGGGGSMIPRGLSEAKPATPEIQEIVDKVKPQLEEKTNETYGKLEAVQYKTQVLANFFQRRWPGSTNYYIKVRAGDNKYMHLKVFNGPWKFRNTDRGADRVLTGYQVDKNKDDELTGFHHHHHH
253000
